As shown below, each of these compounds has a reported IC50 value.
Tested target: H1047R PIK3CA enzyme (Homo sapiens, UniProt P42336, H1047R)
Sequence (P42336 whole entry H1047R): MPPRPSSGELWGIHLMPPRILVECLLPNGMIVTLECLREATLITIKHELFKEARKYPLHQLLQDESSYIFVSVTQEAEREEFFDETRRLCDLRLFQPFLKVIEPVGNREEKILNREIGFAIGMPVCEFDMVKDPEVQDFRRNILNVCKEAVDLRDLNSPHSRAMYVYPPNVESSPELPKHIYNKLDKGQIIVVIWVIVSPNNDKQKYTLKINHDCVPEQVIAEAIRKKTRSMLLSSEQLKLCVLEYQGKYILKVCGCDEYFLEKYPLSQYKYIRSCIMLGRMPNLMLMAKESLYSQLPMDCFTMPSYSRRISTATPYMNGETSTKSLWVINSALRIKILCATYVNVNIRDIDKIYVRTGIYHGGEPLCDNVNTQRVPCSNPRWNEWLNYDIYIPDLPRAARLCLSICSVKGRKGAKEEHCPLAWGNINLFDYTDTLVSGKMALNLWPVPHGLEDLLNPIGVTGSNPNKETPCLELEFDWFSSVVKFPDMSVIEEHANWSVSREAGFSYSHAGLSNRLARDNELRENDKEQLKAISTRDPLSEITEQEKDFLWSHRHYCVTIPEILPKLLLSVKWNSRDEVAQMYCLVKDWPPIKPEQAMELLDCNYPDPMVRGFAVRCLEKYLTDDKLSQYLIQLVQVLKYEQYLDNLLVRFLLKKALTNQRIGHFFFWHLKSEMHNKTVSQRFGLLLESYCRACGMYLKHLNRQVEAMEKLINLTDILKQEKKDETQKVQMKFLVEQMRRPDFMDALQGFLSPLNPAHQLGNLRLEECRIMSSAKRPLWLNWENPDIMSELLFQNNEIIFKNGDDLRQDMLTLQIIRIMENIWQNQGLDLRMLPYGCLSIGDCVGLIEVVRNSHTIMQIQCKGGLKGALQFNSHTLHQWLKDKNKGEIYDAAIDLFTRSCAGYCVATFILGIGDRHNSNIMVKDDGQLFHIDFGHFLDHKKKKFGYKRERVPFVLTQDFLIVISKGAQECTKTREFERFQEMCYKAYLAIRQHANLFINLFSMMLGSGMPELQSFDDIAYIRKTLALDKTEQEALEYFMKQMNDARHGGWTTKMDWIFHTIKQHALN
Sequence (P27986 whole entry partner): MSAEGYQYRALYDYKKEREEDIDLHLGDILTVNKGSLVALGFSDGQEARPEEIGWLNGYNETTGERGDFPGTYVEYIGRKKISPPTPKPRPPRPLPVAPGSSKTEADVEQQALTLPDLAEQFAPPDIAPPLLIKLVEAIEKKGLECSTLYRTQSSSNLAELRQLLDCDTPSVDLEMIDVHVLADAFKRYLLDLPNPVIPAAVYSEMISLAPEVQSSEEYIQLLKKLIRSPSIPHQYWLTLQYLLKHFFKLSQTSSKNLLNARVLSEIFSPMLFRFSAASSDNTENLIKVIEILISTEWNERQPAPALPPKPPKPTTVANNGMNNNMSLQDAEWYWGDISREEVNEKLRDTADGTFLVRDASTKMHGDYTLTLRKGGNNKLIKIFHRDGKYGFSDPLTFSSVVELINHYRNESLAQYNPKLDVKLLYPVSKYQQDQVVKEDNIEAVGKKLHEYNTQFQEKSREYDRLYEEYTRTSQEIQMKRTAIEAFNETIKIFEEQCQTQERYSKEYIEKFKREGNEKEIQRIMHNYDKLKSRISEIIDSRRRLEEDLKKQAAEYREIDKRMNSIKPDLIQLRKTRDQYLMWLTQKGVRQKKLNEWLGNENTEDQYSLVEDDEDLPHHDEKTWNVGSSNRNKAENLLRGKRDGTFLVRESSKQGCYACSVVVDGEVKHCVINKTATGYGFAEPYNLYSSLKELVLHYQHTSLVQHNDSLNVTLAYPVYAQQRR
Protocol description: ADP-Glo Biochemical PIK3CA Kinase Assay

[
  {
    "Compound": "O=C(Nc1cc(-c2ccncc2F)nc2c1C(c1cc(F)ccc1Cl)NC2=O)c1cc(F)cc(Cl)c1 (stereo not drawn) [Compound I-502]",
    "Recorded measurement": "≤ 100 nM"
  },
  {
    "Compound": "O=C(Nc1cccc2c1C(c1cc(Br)ccc1Cl)NC2=O)c1cc(O)cc(C(F)(F)F)c1 (stereo not drawn) [Compound I-414]",
    "Recorded measurement": "100 to 500 nM"
  },
  {
    "Compound": "O=C(Nc1cc(Br)cc2c1C(c1cc(F)ccc1Cl)NC2=O)c1ccccc1 (stereo not drawn) [Compound I-470]",
    "Recorded measurement": "10000 to 100000 nM"
  },
  {
    "Compound": "Cc1ccccc1C1NC(=O)c2cccc(NC(=O)c3nnc4ccc(Cl)cn34)c21 (stereo not drawn) [Compound I-400]",
    "Recorded measurement": "10000 to 100000 nM"
  },
  {
    "Compound": "CC1(C)CCc2scc(C(=O)Nc3cccc4c3C(c3cc(F)ccc3Cl)NC4=O)c2C1 (stereo not drawn) [Compound I-2235]",
    "Recorded measurement": "1000 to 10000 nM"
  }
]

Note: attention shifts to another entry.
Record O=C(Nc1cc(-c2cnn(-c3ccncn3)c2)cc2c1C(c1cc(F)ccc1Cl)NC2=O)c1cc(F)cc(C(F)(F)F)c1 (stereo not drawn) [Compound I-1465] has H1047R PIK3CA enzyme (Homo sapiens, UniProt P42336, H1047R) IC50 equal to ≤ 100 nM

---

Tested target: H1047R PIK3CA enzyme (Homo sapiens, UniProt P42336, H1047R)
Protocol description: ADP-Glo Biochemical PIK3CA Kinase Assay
pIC50: −log10 of the molar value.
The following compounds are listed with their measured pIC50 values.

[
  {
    "Compound": "NC(=O)c1nc(-c2cc(NC(=O)c3cc(F)cc(C(F)(F)F)c3)c3c(c2)C(=O)NC3c2cc(F)ccc2Cl)cs1 (stereo not shown)",
    "pIC50": "≥ 7.00"
  },
  {
    "Compound": "O=C(Nc1cc(Br)cc2c1C(c1cc(F)ccc1Cl)NC2=O)c1cc(Cl)cc(F)c1Cl (stereo not shown)",
    "pIC50": "5.00 to 6.00"
  },
  {
    "Compound": "CC(C)(CC(=O)Nc1cc(Br)cc2c1C(c1cc(F)ccc1Cl)NC2=O)C(F)(F)F (stereo not shown)",
    "pIC50": "4.00 to 5.00"
  }
]

The recorded pIC50 for entry O=C(Nc1cc(CC(O)C(F)(F)F)cc2c1C(c1cc(F)ccc1Cl)NC2=O)c1cc(F)cc(C(F)(F)F)c1 (stereo not shown) equals ≥ 7.00

---

Here the recorded IC50 is given for each entry.
Tested target: H1047R PIK3CA enzyme (Homo sapiens, UniProt P42336, H1047R)
Protocol description: ADP-Glo Biochemical PIK3CA Kinase Assay

[
  {
    "Compound": "CC(C)(CC(F)(F)F)C(=O)Nc1cc(Br)cc2c1C(c1cc(F)ccc1Cl)NC2=O (stereo not shown)",
    "IC50": "10000 to 100000 nM"
  },
  {
    "Compound": "NC(=O)c1cc(NC(=O)c2cc(F)cc(C(F)(F)F)c2)c2c(c1)C(=O)NC2c1cc(F)ccc1Cl (stereo not shown)",
    "IC50": "≤ 100 nM"
  }
]

Entry Cc1ccccc1C1NC(=O)c2cccc(NC(=O)N3CCNC(C(F)(F)F)C3)c21 (racemic) , H1047R PIK3CA enzyme (Homo sapiens, UniProt P42336, H1047R) data, IC50 value: 10000 to 100000 nM

# lookup: Nc1ncc(-c2cc(NC(=O)c3cc(F)cc(C(F)(F)F)c3)c3c(c2)C(=O)NC3c2cc(F)ccc2Cl)cn1 (stereo not shown) on H1047R PIK3CA enzyme (Homo sapiens, UniProt P42336, H1047R), IC50 = ≤ 100 nM
